Every entry's value here was drawn from patent US20190224195A1.

Assay: Solubility test in various oils
Format: physicochemical
Details: oil or lipid, thermodynamic from solid; in Glyceryl caprylate/caprate; room temperature, 24 hours of stirring; read-out: Solubility of Dutasteride
observation.type: solubility at 24 h (mg/mL)
Numeric answer only, unit mg/mL assumed.

# query: solubility at 24 h of entry C[C@]12C=CC(=O)N[C@@H]1CC[C@@H]1[C@@H]2CC[C@]2(C)[C@@H](C(=O)Nc3cc(C(F)(F)F)ccc3C(F)(F)F)CC[C@@H]12 [Dutasteride]
14.3

###

Test: Solubility test according to surfactant
Type: physicochemical
Details: organic solvent or mixture, thermodynamic from solid; in PEG 35 castor oil; read-out: Tadalafil Solubility
observation.type: solubility at 24 h (µg/mL)
Numeric answer only, unit µg/mL assumed.

# query: solubility at 24 h of entry CN1CC(=O)N2[C@H](c3ccc4c(c3)OCO4)c3[nH]c4ccccc4c3C[C@@H]2C1=O
8100

###

Experiment: Solubility test according to surfactant
Type: physicochemical
Conditions: organic solvent or mixture, thermodynamic from solid; in Polysorbate 80; read-out: Dutasteride Solubility
observation.type: solubility at 24 h (µg/mL)
Numeric answer only, unit µg/mL assumed.

# query: solubility at 24 h of entry C[C@]12C=CC(=O)N[C@@H]1CC[C@@H]1[C@@H]2CC[C@]2(C)[C@@H](C(=O)Nc3cc(C(F)(F)F)ccc3C(F)(F)F)CC[C@@H]12 [Dutasteride]
1360

###

Assay: Solubility test according to surfactant
Assay type: physicochemical
Conditions: organic solvent or mixture, thermodynamic from solid; in PEG 6 glyceryl carpylate/caprate; read-out: Tadalafil Solubility
observation.type: solubility at 24 h (µg/mL)
Numeric answer only, unit µg/mL assumed.

# query: solubility at 24 h of entry CN1CC(=O)N2[C@H](c3ccc4c(c3)OCO4)c3[nH]c4ccccc4c3C[C@@H]2C1=O
9130
